- TESTED_SYSTEM: human renin (Homo sapiens)
- Construct: from tissue; host or cells: human plasma from blood of healthy volunteers
- Sequence (P00797 67-406): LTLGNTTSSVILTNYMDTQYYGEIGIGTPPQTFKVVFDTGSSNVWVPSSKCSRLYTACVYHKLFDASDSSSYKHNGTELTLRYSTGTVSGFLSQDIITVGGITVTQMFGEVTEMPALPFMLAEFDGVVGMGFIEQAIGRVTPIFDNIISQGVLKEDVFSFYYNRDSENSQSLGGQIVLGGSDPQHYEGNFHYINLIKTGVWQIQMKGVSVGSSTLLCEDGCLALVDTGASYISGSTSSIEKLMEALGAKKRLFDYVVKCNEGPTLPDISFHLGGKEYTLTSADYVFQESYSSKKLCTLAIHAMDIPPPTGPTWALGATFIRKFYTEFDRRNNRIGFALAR
- PROCEDURE_TEXT: biochemical
pIC50: −log10 of the molar value.
READOUT: pIC50

INSERT INTO assay_data (molecule, reported) VALUES
  ('CC(C)CNC(=O)C[C@H](O)[C@H](CC1CCCCC1)NC(=O)[C@H](CC(C)C)NC(=O)[C@H](Cc1ccccc1)NC(=O)CC1COc2ccc[n+]([O-])c21 (stereo partly shown) [Example E2]', 7.68);

* * *

- TESTED_SYSTEM: human renin (Homo sapiens)
- Construct: from tissue; host or cells: human plasma from blood of healthy volunteers
- PROCEDURE_TEXT: biochemical
- TEST_PARAMETERS: renin activity in human plasma; angiotensin I difference between halves incubated at 37° and 4° for 2 h; linear regression of at least three concentrations; read-out: IC₅₀
READOUT: IC50 (nM)

INSERT INTO measurements (given_smiles, reported) VALUES
  ('CC(C)C[C@H](NC(=O)[C@H](Cc1ccccc1)NC(=O)CCN1C(=O)COc2cccnc21)C(=O)N[C@@H](CC1CCCCC1)[C@@H](O)CC(=O)NCCCn1ccnc1', 26),
  ('CC(C)C[C@H](NC(=O)[C@H](Cc1ccccc1)NC(=O)CCN1C(=O)CSc2ccncc21)C(=O)N[C@@H](CC1CCCCC1)[C@@H](O)CC(=O)NCCCn1ccnc1', 4),
  ('CC(C)C[C@H](NC(=O)[C@H](Cc1ccccc1)NC(=O)CCN1C(=O)CSc2ncccc21)C(=O)N[C@@H](CC1CCCCC1)[C@@H](O)CC(=O)NCCCn1ccnc1', 6),
  ('CC(C)C[C@H](NC(=O)[C@H](Cc1ccccc1)NC(=O)CCN1C(=O)CS(=O)(=O)c2ncccc21)C(=O)N[C@@H](CC1CCCCC1)[C@@H](O)CC(=O)NCCCn1ccnc1', 12),
  ('CC(C)C[C@H](NC(=O)[C@H](Cc1ccccc1)NC(=O)CCCN1Cc2ccncc2C1=O)C(=O)N[C@@H](CC1CCCCC1)[C@@H](O)CC(=O)NCCCn1ccnc1', 14);

Reference for the values: patent EP0416740A2
